target: human TyrRS (Homo sapiens); test: ATP–pyrophosphate exchange assay; format: biochemical; conditions: read-out: Enzyme activity@100 μM (%)
Sequence (P54577 1-341): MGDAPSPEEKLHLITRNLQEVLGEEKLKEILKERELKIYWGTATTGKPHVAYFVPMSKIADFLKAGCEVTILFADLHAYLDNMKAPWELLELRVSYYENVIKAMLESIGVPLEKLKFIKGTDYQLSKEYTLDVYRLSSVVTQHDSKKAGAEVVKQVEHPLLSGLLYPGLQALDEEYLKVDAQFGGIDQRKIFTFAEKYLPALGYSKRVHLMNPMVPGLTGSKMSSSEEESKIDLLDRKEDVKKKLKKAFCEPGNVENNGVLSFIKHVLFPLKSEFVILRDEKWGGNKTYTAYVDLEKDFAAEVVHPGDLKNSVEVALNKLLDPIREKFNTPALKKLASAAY
test readout: remaining activity at 100 µM (%)
Answer in %, number only, no unit symbol.

Recorded remaining activity at 100 µM, per entry:
- compound string: "COc1cc(O)c(Sc2ccc(F)cc2)c2oc(-c3ccccc3)cc(=O)c12"
  value unit: "%"
  remaining activity at 100 µM: 76.4
- compound string: "CC(C)(C)c1ccc(Sc2c(O)c(Sc3ccc(C(C)(C)C)cc3)c3oc(-c4ccccc4)cc(=O)c3c2O)cc1"
  value unit: "%"
  remaining activity at 100 µM: 85.3
- compound string: "Cc1ccccc1Sc1c(O)c(Sc2ccccc2C)c2oc(-c3ccccc3)cc(=O)c2c1O"
  value unit: "%"
  remaining activity at 100 µM: 75.9
- compound string: "COc1cc(O)c(Sc2ccccc2F)c2oc(-c3ccccc3)cc(=O)c12"
  value unit: "%"
  remaining activity at 100 µM: 73.8
- compound string: "O=c1cc(-c2ccccc2)oc2c(Sc3ccccc3O)c(O)cc(O)c12"
  value unit: "%"
  remaining activity at 100 µM: 81.9

Query string: Field: remaining activity at 100 µM (human TyrRS (Homo sapiens)). Entry: COc1ccc(Sc2c(O)cc(OC)c3c(=O)cc(-c4ccccc4)oc23)cc1
Result string: 73.9

Query string: Field: remaining activity at 100 µM (human TyrRS (Homo sapiens)). Entry: COc1cc(O)c(Sc2cccc(F)c2)c2oc(-c3ccccc3)cc(=O)c12
Result string: 68.5

Query string: Field: remaining activity at 100 µM (human TyrRS (Homo sapiens)). Entry: COc1ccccc1Sc1c(O)c(Sc2ccccc2OC)c2oc(-c3ccccc3)cc(=O)c2c1O
Result string: 88.9

Query string: Field: remaining activity at 100 µM (human TyrRS (Homo sapiens)). Entry: O=c1cc(-c2ccccc2)oc2c(Sc3cccc(O)c3)c(O)cc(O)c12
Result string: 93.2
